Each entry below lists one item and its recorded melting point value.

Sample records with melting point:
Data request: For the molecule shown here, O=[N+]([O-])c1ccc(/C=C/c2cc(O)c3ccccc3n2)o1 [Compound 5] , give the reported melting point.
Data returned: 306 to 308 °C

Data request: Now the molecule O=[N+]([O-])c1ccc(/C=C/c2ccc3c(Cl)cc(Cl)c(O)c3n2)o1 [Compound 7]
Data returned: 270 to 271 °C

New cases:
Data request: For the molecule shown here, O=[N+]([O-])c1ccc(/C=C/c2ccnc3ccccc23)c([N+](=O)[O-])c1 [Compound 12] , give the reported melting point.
Data returned: 200 to 201 °C

Data request: Now the molecule O=[N+]([O-])c1ccc(/C=C/c2ccc3cccc(O)c3n2)o1 [Compound 3]
Data returned: 189 to 191 °C

Data request: Now the molecule O=[N+]([O-])c1cccc(/C=C/c2ccnc3ccccc23)c1 [Compound 10]
Data returned: 111 to 112 °C

Data request: Now the molecule CC(=O)Oc1cccc2ccc(/C=C/c3ccc([N+](=O)[O-])o3)nc12 [Compound 4]
Data returned: 173 to 175 °C

Data request: Now the molecule O=[N+]([O-])c1ccc(/C=C/c2ccnc3ccccc23)cc1 [Compound 11]
Data returned: 228 to 229 °C

Data request: Now the molecule O=[N+]([O-])c1ccccc1/C=C/c1ccnc2ccccc12 [Compound 9]
Data returned: 161 to 163 °C

Data request: Now the molecule CC(=O)Oc1c(Cl)cc(Cl)c2ccc(/C=C/c3ccc([N+](=O)[O-])o3)nc12 [Compound 8]
Data returned: 220 to 222 °C

---

Test system: HCT 116 p53-/-
Assay: Monolayer antiproliferative MTS assay
Type: cell-based, human
Details: Homo sapiens, HCT-116; 2D monolayer, MTS, 72-h incubation
Result type: IC50 (nM)
Lab book: enter the figure in nM, no units written.

Data request: For the compound shown here, COc1cccc2c1C(=O)c1c(O)c3c(c(O)c1C2=O)C[C@@](O)(C(=O)CO)C[C@@H]3O[C@H]1C[C@H](N)[C@H](O)[C@H](C)O1 [Doxorubicin, reference compound] , give the reported IC50.
Data returned: 380

---

Test system: U-251
Assay: Monolayer antiproliferative MTS assay
Assay type: cell-based, human
Details: 2D monolayer, MTS, 72-h incubation
Result type: IC50

Data request: For the molecule shown here, O=[N+]([O-])c1ccc(/C=C/c2ccnc3ccccc23)o1 , give the reported IC50.
Data returned: 87 nM

---

Tested on: HCT 116 p53+/+
Experiment: Monolayer antiproliferative MTS assay
Assay type: cell-based, human
Conditions: 2D monolayer; relative to NHDF
We use 3 as the dividing line for SI (selectivity index) HCT 116 p53+/+: on or above the line is yes, below is no.

Worked set:
Data request: Record COc1cccc2c1C(=O)c1c(O)c3c(c(O)c1C2=O)C[C@@](O)(C(=O)CO)C[C@@H]3O[C@H]1C[C@H](N)[C@H](O)[C@H](C)O1 [Doxorubicin, reference compound] ; criterion: SI (selectivity index) HCT 116 p53+/+ no lower than 3. Met?
Data returned: no

Data request: Now the compound CC(=O)Oc1c(Cl)cc(Cl)c2ccc(/C=C/c3ccc([N+](=O)[O-])o3)nc12
Data returned: yes

Data request: Now the compound O=[N+]([O-])c1ccc(/C=C/c2ccnc3ccccc23)o1
Data returned: yes

New cases:
Data request: Record O=[N+]([O-])c1ccc(/C=C/c2cc(O)c3ccccc3n2)o1 ; criterion: SI (selectivity index) HCT 116 p53+/+ no lower than 3. Met?
Data returned: no

Data request: Now the compound CC(=O)Oc1cccc2ccc(/C=C/c3ccc([N+](=O)[O-])o3)nc12
Data returned: yes

Data request: Now the compound O=[N+]([O-])c1ccc(/C=C/c2ccc3c(Cl)cc(Cl)c(O)c3n2)o1
Data returned: yes

Data request: Now the compound Cc1c(NC(=O)c2cc(C(N)=O)nc3cc(F)ccc23)c(C(F)(F)F)nn1Cc1ccc(C#N)cc1
Data returned: no

Just for reference, paper PMC11574108 is where these values come from.
